- MEASUREMENT_NOTES: Therapeutic index, ratio of IC50 for human HL60 cells to IC50 for Plasmodium falciparum
- Format: cell-based, HL-60
- CONDITION_NOTES: read-out: TI
Exercise: state measured selectivity ratio for each of the molecules provided.

Give me selectivity ratio for each of these molecules, listed below.
1. COP(=O)(OCC[C@H]1O[C@@H]2OC3(C)CC[C@H]4[C@H](C)CC[C@@H]([C@H]1C)[C@@]24OO3)OCC[C@H]1O[C@@H]2OC3(C)CC[C@H]4[C@H](C)CC[C@@H]([C@H]1C)[C@@]24OO3 (single isomer, unassigned)
2. C[C@H]1[C@@H](CCOP(=O)(OCC[C@H]2O[C@@H]3OC4(C)CC[C@H]5[C@H](C)CC[C@@H]([C@H]2C)[C@@]35OO4)Oc2ccccc2)O[C@@H]2OC3(C)CC[C@H]4[C@H](C)CC[C@@H]1[C@@]24OO3 (single isomer, unassigned)

A.
> 500
> 500

Just for reference, ChEMBL document CHEMBL1143376 is where these values come from.
